Measured log10 koff, listed per entry for reference.
target: PVNZ112.3-CBP (Parapoxvirus of red deer in New Zealand (PVNZ), strain RD86); test: SPR; CBP-FLAG immobilised by amine coupling on a CM5 chip (300-400 RU, 10 mM sodium acetate pH 4.5); serial dilutions of mouse chemokine flowed in triplicate for 3 min, 10 min dissociation; 25°C; HBS-EP buffer (20 mM HEPES, 150 mM NaCl, 3.4 mM EDTA, 0.005% Polysorbate 20, pH 7.4); Biacore X100; global fit with a 1:1 binding model
Each number you see is log10 of koff, and the unit inside the log is s⁻¹.

Here are 3 binders together with their reported answers.
binder	log10 koff
recombinant mouse CXCL2 (ligand) AVVASELRCQCLKTLPRVDFKNIQSLSVTPPGPHCAQTEVIATLKGGQKVCLDPEAPLVQKIIQKILNKGKAN	-3.06
recombinant mouse CCL19 (ligand) GANDAEDCCLSVTQRPIPGNIVKAFRYLLNEDGCRVPAVVFTTLRGYQLCAPPDQPWVDRIIRRLKKSSAKNKGNSTRRSPVS	-2.80
recombinant mouse CXCL10 (ligand) IPLARTVRCNCIHIDDGPVRMRAIGKLEIIPASLSCPRVEIIATMKKNDEQRCLNPESKTIKNLMKAFSQKRSKRAP	-1.70

So what's the measured log10 koff for this one? recombinant mouse CXCL4 (ligand) VTSAGPEESDGDLSCVCVKTISSGIHLKHITSLEVIKAGRHCAVPQLIATLKNGRKICLDRQAPLYKKVIKKILES
-2.90

Which value of log10 koff has been reported for recombinant mouse CXCL1 (ligand) APIANELRCQCLQTMAGIHLKNIQSLKVLPSGPHCTQTEVIATLKNGREACLDPEAPLVQKIVQKMLKGVPK in the records?
-2.77

The measurements presented in this section are drawn from paper PMC6603201.
